Catalogue of compounds with associated Activity
# Test system: Escherichia coli
# TEST: Inhibition of Escherichia coli MurA assessed as residual activity at 100 uM using UNAG and PEP as substrate preincubated for 30 mins in presence of UNAG followed by PEP addition and measured after 15 mins by malachite green colorimetric assay relative to control
# STATED CONDITIONS: time 45.0 min
Where a name gives a salt, the structure may show the parent alone.
MEASURED PROPERTY: Activity (%)

{"columns": ["COMPOUND", "MEASURED PROPERTY", "RESULT NUMBER"],
 "data": [
  ["O=C(CCl)c1ccccc1 [PHENACYL CHLORIDE]", "Activity", 3],
  ["Cc1ccc(S)cc1", "Activity", 6],
  ["COc1ccccc1C(=O)CBr", "Activity", 3],
  ["O=C(CCl)Nc1ccccc1", "Activity", 100],
  ["O=C1C=CC(=O)N1C1CCCCC1", "Activity", 1],
  ["O=c1[nH]sc2ccccc12", "Activity", 2],
  ["S=C=NCc1ccccc1 [BENZYL ISOTHIOCYANATE]", "Activity", 3],
  ["FC(F)(F)c1cccc(N=C=S)c1", "Activity", 3],
  ["C/C=N/Nc1cc2ccccc2cn1", "Activity", 99],
  ["N#C/C=C/C(F)(F)F", "Activity", 47],
  ["O=C1C=CC(=O)N1Cc1ccccc1", "Activity", 2],
  ["COc1cc2c(cc1OC)CN(C(=O)CCl)CC2", "Activity", 61],
  ["C/C=C/C#N", "Activity", 100],
  ["C/C=C/C(=O)OC", "Activity", 41],
  ["COc1ccc(N=C=S)cc1", "Activity", 33],
  ["S=C=Nc1ccccc1 [PHENYLISOTHIOCYANATE]", "Activity", 53],
  ["CCOC(=O)C#CC(F)(F)F", "Activity", 15],
  ["COC(=O)/C=C/C(=O)OC [DIMETHYL FUMARATE]", "Activity", 50],
  ["COc1cc(NC(=O)CCl)cc(OC)c1", "Activity", 61],
  ["C=CS(=O)(=O)c1ccccc1 [(ETHENYLSULFONYL)BENZENE]", "Activity", 12],
  ["CC#CC(=O)OCC", "Activity", 82],
  ["CCOC(=O)C#Cc1ccccc1", "Activity", 75],
  ["O=C(CBr)c1ccccc1", "Activity", 2]
]}
